Listed below: cell viability values for each entry.
System: Caco-2
Assay: cell viability relative to DMSO; higher = less toxic
Conditions: 72 h; 10 nM
Write your answer as a measured quantity: the number, then the unit.

COMPOUND: O=c1[nH]c2ccccc2n1CCCN1CCC(n2c(=O)[nH]c3cc(Cl)ccc32)CC1
cell viability: 96.1%
--
COMPOUND: NC(=O)N1c2ccccc2CC(O)c2ccccc21 (centres undefined) [licarbazepine]
cell viability: 99.5%
--
COMPOUND: CN(C)CC/C=C1/c2ccccc2COc2ccccc21 [doxepin]
cell viability: 100%

Q: Look up cell viability with Caco-2 for this compound: `CCOC(=O)[C@H](CCc1ccccc1)N[C@@H](C)C(=O)N1Cc2ccccc2C[C@H]1C(=O)O`
Result: 99.6%

Q: Entry `O=C(O)c1ccc(-n2nc(-c3ccccc3O)nc2-c2ccccc2O)cc1` please
Result: 92.5%

* * *

System: U2OS
Experiment: cell viability relative to DMSO; higher = less toxic
Settings: 72 h; 10 nM
PROPERTY_MEASURED: cell viability (%)
Give just the numeric value; % need not be written.

Solved entries (count: 3):
MOLECULE: NC(=O)N/N=C/c1ccc([N+](=O)[O-])o1 [nitrofurazone]
cell viability [%]: 98.1
--
MOLECULE: CC[n+]1c(-c2ccccc2)c2cc(N)ccc2c2ccc(N)cc21 [homidium]
cell viability [%]: 96
--
MOLECULE: CC(C)CCC[C@@H](C)[C@H]1CC[C@H]2[C@@H]3CC=C4C[C@@H](O)CC[C@]4(C)[C@H]3CC[C@]12C [cholesterol]
cell viability [%]: 93.3

Q: Which cell viability reading was recorded for the molecule CC(C)(C)[C@]1(O)CC2OC(=O)CC23C(=O)OC2OC(=O)[C@H](O)C231 (some centres undefined) [bilobalide] ?
Result: 104

Q: Lookup COc1cccc(/C=N/N=C/c2cccc(OC)c2)c1 [DMeOB]
Result: 102

Q: What do you get for Cn1cc([S+](C)[O-])c(=O)c2ccc(F)cc21 (centres undefined) [flosequinan] ?
Result: 95.3

Q: Likewise for CC1(C)O[C@@H]2C[C@H]3[C@@H]4CCC5=CC(=O)C=C[C@]5(C)[C@H]4[C@@H](O)C[C@]3(C)[C@]2(C(=O)CO)O1 [desonide] ?
Result: 94.9

Q: Same for O=C(CN1CCNCC1)NC1CCCCC1 [esaprazole]
Result: 100

Q: Next record, please: O=c1cc[nH]c(=O)[nH]1 [uracil]
Result: 98.7

* * *

Test system: Caco-2
Assay: drug sensitivity score (DSS) for viability; higher = more toxic; extreme values may be limits of the assay
Conditions: 72 h
Everything with drug sensitivity score lower than 0.1 is Not satisfied; everything else, including exactly 0.1, is Satisfied.

Please review the entries below; each comes with its answer.
COMPOUND: COC1(C[S@@+]([O-])c2ccccc2)CCN(CCc2c[nH]c3ccc(F)cc23)CC1
TARGET_OF_ASSAY: Caco-2
CLASSIFICATION: Not satisfied
//
COMPOUND: CN(C)CCCC(=O)Nc1ccc(C(=O)Nc2cccc(Nc3ncc(Cl)c(-c4c[nH]c5ccccc45)n3)c2)cc1
TARGET_OF_ASSAY: Caco-2
CLASSIFICATION: Satisfied
//
COMPOUND: CCOC(=O)CCNc1cc(N2CCc3ccccc3CC2)nc(-c2ccccn2)n1
TARGET_OF_ASSAY: Caco-2
CLASSIFICATION: Satisfied

Q: Check the entry `CC(=O)[C@@]1(O)CC[C@H]2[C@@H]3C=C(Cl)C4=CC(=O)[C@@H]5C[C@@H]5[C@]4(C)[C@H]3CC[C@@]21C` : does drug sensitivity score equal or exceed 0.1?
Result: Not satisfied

Q: Next up: `O=C1[C@@H]2[C@H]3CC[C@H](C3)[C@@H]2C(=O)N1C[C@@H]1CCCC[C@H]1CN1CCN(c2nsc3ccccc23)CC1`
Result: Satisfied

Q: Moving on to the next compound: `COCCOCCOc1ccc(C2=N[C@@](C)(C(=O)O)CS2)c(O)c1`
Result: Satisfied

Q: Next up: `CCN1CCN(c2cc(-c3ccc(F)cc3)c3c(n2)CCCCCC3)CC1`
Result: Not satisfied

Source of measurements: the supplement of paper PMC13380429
